Read-out: Macrophage colony-stimulating factor (MCSF), CSF1 (gene 1435)
Assay: BSK_hDFCGF_MCSF: BioMAP Diversity Plus: hDFCGF Assay for Macrophage colony-stimulating factor (MCSF) Biomarker Activity (AID 2283060)
Settings: primary human foreskin fibroblasts; actives raise or lower the signal
Description: BSK_hDFCGF is a cell-based, multiplexed-readout assay that uses foreskin fibroblast, a human skin primary cell, with measurements taken at 24 hours after chemical dosing in a 96-well plate.BSK_hDFCGF_MCSF is an assay component measured in the BSK_hDFCGF assay. It measures M-CSF antibody related to regulation of gene expression using ELISA technology.Data from the assay component BSK_hDFCGF_MCSF was analyzed into 1 assay endpoint. […]
Calls of active or inactive are those of the source. The calls were made as follows: active = hit-call score of the fitted dose curve at least 0.9, where 1 is the maximum; inactive = score below 0.9.
Labels: active, inactive

>>> answer_label("CCO[Si](C)(OCC)OCC")
"inactive"
>>> answer_label("CCCCCCCCCCCCCCCC[N+](C)(C)CC")
"active"
>>> answer_label("O=C(c1ccc(O)cc1)c1ccc(O)cc1O")
"inactive"
